These entries and their values trace back to patent US10538583.

- experimental-system: human ApoC3 (human)
- Sequence (chain, as listed by the source): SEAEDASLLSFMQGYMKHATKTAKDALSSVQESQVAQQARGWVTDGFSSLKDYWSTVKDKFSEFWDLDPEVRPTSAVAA
- assay-remarks: SPR pH 7.4, antibody immobilized
Catalogue of binders with associated Kd
Give the value, in units of nM, as a plain number.

The following binders have reported results that may help.
>  <binder>
mAb4 (antibody, V domains shown) VH: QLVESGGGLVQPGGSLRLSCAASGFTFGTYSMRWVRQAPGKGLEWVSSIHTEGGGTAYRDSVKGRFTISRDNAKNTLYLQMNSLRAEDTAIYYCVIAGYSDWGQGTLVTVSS VL: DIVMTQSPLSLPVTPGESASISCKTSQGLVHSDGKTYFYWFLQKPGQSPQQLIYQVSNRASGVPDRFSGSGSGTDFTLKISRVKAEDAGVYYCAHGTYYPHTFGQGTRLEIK

>  <test-result>
124

$$$$
>  <binder>
mAb15 (antibody, V domains shown) VH: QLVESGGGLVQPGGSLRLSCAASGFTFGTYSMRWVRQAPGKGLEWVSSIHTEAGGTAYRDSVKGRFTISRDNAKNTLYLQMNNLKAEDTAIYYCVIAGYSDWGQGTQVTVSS VL: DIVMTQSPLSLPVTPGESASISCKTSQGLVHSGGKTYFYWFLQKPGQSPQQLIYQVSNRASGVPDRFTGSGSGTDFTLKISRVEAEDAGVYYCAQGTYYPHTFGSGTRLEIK

>  <test-result>
34.7

$$$$
>  <binder>
mAb14 (antibody, V domains shown) VH: QLLESGGGLVQPGGSLRLSCAASGFTFGTYSMRWVRQVPGKGLEWVSSIHTEGGGTAYRDSVKGRFTISRDNSKNTLYLQMNSLRAEDTAVYYCVIAGYSDWGQGTLVTVSS VL: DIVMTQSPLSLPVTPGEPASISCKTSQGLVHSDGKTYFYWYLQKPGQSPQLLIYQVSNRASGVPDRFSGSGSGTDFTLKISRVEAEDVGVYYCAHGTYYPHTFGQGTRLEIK

>  <test-result>
1760

$$$$
>  <binder>
mAb2 (antibody, V domains shown) VH: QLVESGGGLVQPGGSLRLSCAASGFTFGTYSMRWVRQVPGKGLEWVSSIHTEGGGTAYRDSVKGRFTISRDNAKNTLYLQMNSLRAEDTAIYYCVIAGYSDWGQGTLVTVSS VL: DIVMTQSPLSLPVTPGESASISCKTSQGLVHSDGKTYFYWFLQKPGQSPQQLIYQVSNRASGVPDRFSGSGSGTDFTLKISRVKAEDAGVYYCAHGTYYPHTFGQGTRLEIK

>  <test-result>
103

$$$$

# ---- query binder ----
Task item: Please give measured Kd of the following entry: mAb20 (antibody, V domains shown) VH: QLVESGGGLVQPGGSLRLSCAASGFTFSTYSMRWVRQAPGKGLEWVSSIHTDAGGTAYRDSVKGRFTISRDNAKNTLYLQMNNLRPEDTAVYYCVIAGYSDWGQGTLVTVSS VL: DIVMTQSPGSLSVTPGEPASISCKTSQGLVHSGGKTYFYWFLQKPGQSPQQLIYQVSNRASGVPDRFTGSGSGTDFTLKISGVEAEDAGVYYCAHGTYYPHTFGQGTRLEIK
Reply: 1340
